Hello, the source for this data is patent US20250074980A1, in case you need it.

# Target Desc: T1, His-tagged CEACAM1 (human, UniProt P13688 35-428)
# T1 construct: 45 kDa SPR analyte; also called CEACAM1-HIS; CEACAM1 analyte
# T1 sequence: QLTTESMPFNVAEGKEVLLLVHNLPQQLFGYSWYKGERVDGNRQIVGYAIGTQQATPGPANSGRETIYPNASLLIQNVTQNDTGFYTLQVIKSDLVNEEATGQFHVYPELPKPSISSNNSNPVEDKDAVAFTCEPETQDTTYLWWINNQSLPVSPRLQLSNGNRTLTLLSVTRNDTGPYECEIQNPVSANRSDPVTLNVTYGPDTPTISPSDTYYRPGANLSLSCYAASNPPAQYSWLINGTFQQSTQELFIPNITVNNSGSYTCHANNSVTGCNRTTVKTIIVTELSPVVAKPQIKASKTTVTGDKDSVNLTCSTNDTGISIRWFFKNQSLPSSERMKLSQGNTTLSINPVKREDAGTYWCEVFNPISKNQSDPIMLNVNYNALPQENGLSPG
# Test Description: SPR single-cycle, IgG captured
Measurement Label: relative KD to VH0/Vκ0
Provide a numeric answer; units are not to be included.

Task: Name the recorded relative KD to VH0/Vκ0 for VH1/Vκ8 (antibody, IgG4, V domains shown, IgG4 (S241P), kappa) VH: EVQLLESGGGLVQPGGSLRLSCAASGFIFSSHGMSWVRQAPGKGLEWVATISSGGTYTYYPDSVKGRFTISRDNSKNTLYLQMNSLKAEDTAMYYCARHDFDYDAAWFAYWGQGTLVTVSS VL: EIVLTQSPATLSLSPGERATLSCRANSSVSYMYWYQQKPGQAPRPWIYLTSNRATGVPARFSGSGSGTDYTLTISSLEPEDFAVYYCQQWSSNPPTFGQGTKLEIK .
Output: 3.2

Task: Now try VH2/Vκ9 (antibody, IgG4, V domains shown, IgG4 (S241P), kappa) VH: EVQLLESGGGLVQPGGSLRLSCAASGFIFSSHGMSWVRQAPGKGLEWVATISSGGTYTYYPDSVKGRFTISRDNSKNTLYLQMNSLRAEDTAMYYCARHDFDYDAAWFAYWGQGTLVTVSS VL: EIVLTQSPATLSLSPGERATLSCRANSSVSYMYWYQQKPGQAPRPLIYLTSNRATGVPARFSGSGSGTDYTLTISSLEPEDFATYYCQQWSSNPPTFGQGTKLEIK .
Output: 2.7

Task: Now try VH1/Vκ4 (antibody, IgG4, V domains shown, IgG4 (S241P), kappa) VH: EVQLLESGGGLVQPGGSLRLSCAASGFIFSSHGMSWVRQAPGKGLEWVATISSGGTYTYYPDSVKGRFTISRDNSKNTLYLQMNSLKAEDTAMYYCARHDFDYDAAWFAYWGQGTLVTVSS VL: EIVLTQSPATLSLSPGERATLSCRANSSVSYMYWYQQKPGQAPRPWIYLTSNRATGIPARFSGSGSGTDYTLTISSLEPEDFATYYCQQWSSNPPTFGQGTKLEIK .
Output: 3.1
